molecular target: 26S proteasome non-ATPase regulatory subunit 14 (Homo sapiens) (UniProt O00487); experiment: inhibition of 26S proteasome subunit Rpn11 – biochemical, fluorescence polarization, uHTS, primary screen (AID 588493); conditions: human 26S proteasome, Ub4-pepOG fluorescence polarization, at 20 µM
Sequence (O00487 whole entry, looked up): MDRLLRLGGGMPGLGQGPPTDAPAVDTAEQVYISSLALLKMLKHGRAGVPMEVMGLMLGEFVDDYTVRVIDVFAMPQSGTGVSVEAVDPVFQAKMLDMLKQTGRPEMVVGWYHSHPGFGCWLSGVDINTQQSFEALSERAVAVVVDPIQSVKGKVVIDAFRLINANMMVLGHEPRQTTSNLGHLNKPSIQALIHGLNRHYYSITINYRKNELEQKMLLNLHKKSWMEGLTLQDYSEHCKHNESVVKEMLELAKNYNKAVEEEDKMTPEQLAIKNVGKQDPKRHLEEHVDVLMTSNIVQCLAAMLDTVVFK
Hit rate of the full screen: of about 360,000 compounds, about 2,100 (0.58%) were called active.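 The calls were made as follows: active = inhibition at 20 µM, scaled to each plate's controls, above about 33% (limit read from the data); inactive = the rest.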 What follows is part of a selection rich in actives, with near analogues and random picks from the rest.
Lab note: assign the record to one of t (active), f (inactive)

molecule=O=c1[nH]c(=O)n(Cc2ccccc2)c(O)c1/C=N/Nc1c(F)c(F)c(F)c(F)c1F class_label=t
molecule="O=C(C1CC(=O)N(C2CCCC2)C1)N1CCC2(CC1)OCCO2 (centres undefined)" class_label=f
molecule=CN(C)C(=O)Oc1ccc2c(c1)O/C(=C\c1ccccc1)C2=O class_label=f

Task item: Called result for O=C(N/N=C/c1c(O)n(Cc2ccccc2)c(=O)[nH]c1=O)c1ccccc1
Reply: f

Task item: Can you check COc1ccc(C2C=C(C)Oc3c2c(=O)oc2ccccc32)cc1OC (centres undefined) next?
Reply: f

Task item: Can you check Cc1cccc(N2C(=O)NC(=O)/C(=C\c3cnn(-c4ccccc4)c3)C2=O)c1 next?
Reply: t

Task item: Can you check COc1ccc(C2NCc3ccc4c(c3-n3cccc32)OCO4)cc1OC (centres undefined) next?
Reply: f

Task item: Can you check c1cc2c(c(NC3=NCCCS3)c1)CCCC2 next?
Reply: f

Task item: Can you check Cn1c(O)c(C(=Nc2ccc(F)cc2)c2ccccc2)c(=O)n(C)c1=O next?
Reply: f

The values you see were collected from PubChem BioAssay AID588493.
